Experiment: Accelerated autoxidation of lipids by air (Rancimat apparatus), antioxidative index
Format: physicochemical
Conditions: AOI=IP(with test solution)/IP(control sample); squalene purified over alumina, stabilized with 1 ppm α-tocopherol; dry air 20 l/h
Threshold 40: AOI in squalene at 80° C. with 0.005% of test substance strictly smaller gives Satisfied, otherwise Not satisfied.

Ask: I wonder whether O=C(NC1CCCCC1)C(O)c1ccc(O)c(O)c1 (stereo not drawn) has AOI in squalene at 80° C. with 0.005% of test substance below 40. Can you tell?
Reply: Not satisfied

Ask: I wonder whether Cc1cc(C(C)(C)C)c(O)c(C(C)(C)C)c1 [Dibutylhydroxytoluene] has AOI in squalene at 80° C. with 0.005% of test substance below 40. Can you tell?
Reply: Satisfied

Ask: I wonder whether `O=C1O[C@H]([C@@H](O)CO)C(O)=C1O` has AOI in squalene at 80° C. with 0.005% of test substance below 40. Can you tell?
Reply: Satisfied

Ask: I wonder whether CCCCCCNC(=O)C(O)c1ccc(O)c(O)c1 (stereo not drawn) has AOI in squalene at 80° C. with 0.005% of test substance below 40. Can you tell?
Reply: Not satisfied

Ask: I wonder whether CCCCC(CC)CNC(=O)C(O)c1ccc(O)c(O)c1 (stereo not drawn) has AOI in squalene at 80° C. with 0.005% of test substance below 40. Can you tell?
Reply: Not satisfied

Data provenance is patent US20030171617A1.
